Listed next: entries and their corresponding IC50.
system name: full length recombinant Pim-1 protein (Homo sapiens, UniProt P11309)
Construct: by full length recombinant Pim-1, Pim-2, or Pim-3 protein; hexahistidine tag followed by a thrombin cleavage site (N); made in house; host or cells: Sf9 (baculovirus) or E. coli (pET28)
Sequence (P11309 whole entry): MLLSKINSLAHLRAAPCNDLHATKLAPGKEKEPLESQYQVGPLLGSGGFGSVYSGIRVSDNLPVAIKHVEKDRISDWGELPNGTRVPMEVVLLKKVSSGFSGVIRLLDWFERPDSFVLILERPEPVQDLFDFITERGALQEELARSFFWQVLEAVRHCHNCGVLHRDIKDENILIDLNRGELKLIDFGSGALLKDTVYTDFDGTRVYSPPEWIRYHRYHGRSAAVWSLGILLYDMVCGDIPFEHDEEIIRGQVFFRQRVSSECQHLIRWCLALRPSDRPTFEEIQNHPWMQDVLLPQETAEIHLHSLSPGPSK
run description: Pim-1 enzyme assay (HTRF, phosphorylation of biotinylated-BAD (S112) peptide)
Assay type: biochemical
experimental parameters: read-out: Pim_1_IC50
Protocol: These cDNAs were used as templates in PCR reactions to produce full-length DNA clones of the PIMs. […] This step was repeated 3× and the resin was transferred to a 2.5 cm glass column. […] Fractions were analyzed by SDS-PAGE and those containing the protein of interest were pooled and concentrated. […] The final buffer conditions were as follows: 60 mM Hepes, pH 7.0, 0.05% BSA, 2 mM DTT. […] For each plate, percent of control (POC) values were calculated for each well. […]
All answers are understood in nM, so give the number only.

[
  {
    "molecule": "FC(F)(F)c1ccccc1-c1ccc2[nH]nc(-c3cncc(O[C@H]4CNCCC45CC5)n3)c2c1",
    "value units": "nM",
    "reported": 20
  }
]

Input line: Given the entry `O=C(NC1CC1)c1ccc(F)c(-c2ccc3[nH]nc(-c4cncc(OCCF)n4)c3c2)c1` , report its measured IC50.
Output line: 173

Input line: Record request: IC50 value, item `COc1ccc(-c2ccc3[nH]cc(-c4cncc(O[C@@H]5CCCNC5)n4)c3c2)cn1`
Output line: 6

Input line: Tell me the measured IC50 of `CN(C)C(=O)c1ccc2[nH]nc(-c3cncc(N4CCC(N)CC4)n3)c2c1` , please.
Output line: 374

Input line: Fill in: IC50 of CC1CCNCC1Oc1cncc(-c2n[nH]c3ccc(-c4c(F)cccc4F)cc23)n1 (single isomer, unassigned) [Example 424] is ___
Output line: 1

---

Collected IC50 values appear next to each entry.
system name: full length recombinant Pim-2 protein (Homo sapiens, UniProt Q9P1W9)
Construct: by full length recombinant Pim-1, Pim-2, or Pim-3 protein; hexahistidine tag followed by a thrombin cleavage site (N); made in house; host or cells: Sf9 (baculovirus) or E. coli (pET28)
Sequence (Q9P1W9 whole entry): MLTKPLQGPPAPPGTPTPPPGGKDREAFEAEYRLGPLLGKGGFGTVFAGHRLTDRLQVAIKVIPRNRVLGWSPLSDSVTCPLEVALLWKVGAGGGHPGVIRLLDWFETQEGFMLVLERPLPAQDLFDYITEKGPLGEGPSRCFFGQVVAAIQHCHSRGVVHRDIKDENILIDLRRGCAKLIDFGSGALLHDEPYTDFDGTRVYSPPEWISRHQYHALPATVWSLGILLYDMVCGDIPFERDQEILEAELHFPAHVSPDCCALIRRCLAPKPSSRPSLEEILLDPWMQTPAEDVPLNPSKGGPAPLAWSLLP
run description: Pim-2 enzyme assay (HTRF, phosphorylation of biotinylated-BAD (S112) peptide)
Type: biochemical
experimental parameters: read-out: Pim2_IC50
Write the value in nM as a bare number.

Field: example entries. Status: answers known.
[
  {
    "chemical string": "COC(=O)c1ccc2[nH]nc(-c3cncc(O[C@H]4CNCCC45CC5)n3)c2c1",
    "reported": 35
  },
  {
    "chemical string": "O=C(NC1CC1)c1cccc(-c2ccc3[nH]nc(-c4cncc(O[C@H]5CNCCC56CC6)n4)c3c2)c1",
    "reported": 4
  },
  {
    "chemical string": "c1cc(-c2ccc3[nH]cc(-c4cncc(O[C@@H]5CCCNC5)n4)c3c2)cc(-c2ccno2)c1",
    "reported": 41
  },
  {
    "chemical string": "c1cc2[nH]nc(-c3cncc(O[C@H]4CNCCC45CC5)n3)c2cc1C1CC1",
    "reported": 5
  },
  {
    "chemical string": "CC(C)n1cc(-c2ccc3[nH]cc(-c4cncc(O[C@@H]5CCCNC5)n4)c3c2)cn1",
    "reported": 76
  },
  {
    "chemical string": "CC(C)Oc1cncc(-c2ccc3[nH]cc(-c4nnc(N5CCC(N)CC5)o4)c3c2)n1",
    "reported": 161
  },
  {
    "chemical string": "c1cc2[nH]cc(-c3cncc(O[C@@H]4CCCNC4)n3)c2cc1-c1cncc(N2CCCC2)n1",
    "reported": 189
  }
]

Proceed to the following item.
Input line: Entry under review: `COc1cncc(-c2n[nH]c3ccc(-c4nccc(N5CCOC[C@@H]5C)n4)cc23)n1` . Reported IC50?
Output line: 275

Entry source: patent US9090593B2
